Test system: MDA-MB-468 breast cancer cell line
PROCEDURE SUMMARY: Proliferation assay (MTT)
Assay type: cell-based
CONDITION INFO: Homo sapiens, MDA-MB-468
pIC50: −log10 of the molar value.
ENDPOINT NAME: pIC50

COMPOUND: Oc1ccc(C2=Cc3ccc(O)cc3OC2)cc1 [DHE, dehydroequol, reference compound]
ENDPOINT NAME: pIC50
OBSERVED VALUE: 5.10

* * *

System: IGR-3 (Melanoma)
PROCEDURE SUMMARY: Proliferation assay (MTT)
Format: cell-based
CONDITION INFO: Table 2.1; Melanoma IGR-3

COMPOUND: COc1ccc(C2c3ccc(O)cc3OCC2c2ccc(O)cc2)cc1 (stereo not shown) [Compound 1]
IC50 (nM): 530

Numbers sourced from patent US8163795B2.
